tested on: PDE IV; construct: other: PDE IV from porcine hearts, cAMP 1 μM; assay: PDE inhibition, type IV PDE (cAMP substrate); assay type: biochemical; details: PDE IV from porcine hearts, cAMP 1 μM; read-out: Inhibition of PDE Isoenzymes (IC50) IV
Measured Metric: IC50 (µM)
One number for each entry, in µM.

# Compound, Assay Result
rows = [
    ("O=c1c(CCCc2cccnc2)cc2cccnc2n1-c1cccc([N+](=O)[O-])c1 [Example No. 7]", 1.3),
    ("O=c1c(CCCCc2cccnc2)cc2cccnc2n1-c1cccc([N+](=O)[O-])c1 [Example No. 14]", 1.5),
    ("O=c1c(CCCCc2ccccn2)cc2cccnc2n1-c1cccc([N+](=O)[O-])c1 [Example No. 13]", 1.2),
    ("O=c1c(CCCCCc2cccnc2)cc2cccnc2n1-c1cccc([N+](=O)[O-])c1 [Example No. 16]", 1.9),
    ("O=c1c(CCc2cccnc2)cc2cccnc2n1-c1cccc([N+](=O)[O-])c1 [Example No. 5]", 0.06),
]

For each entry beneath this line, provide reported IC50.
1. O=c1c(Cc2cccnc2)cc2cccnc2n1-c1cccc([N+](=O)[O-])c1 [Example No. 2]
2. O=c1c(CCCCc2ccncc2)cc2cccnc2n1-c1cccc([N+](=O)[O-])c1 [Example No. 15]
3. O=c1c(CCCc2ccncc2)cc2cccnc2n1-c1cccc([N+](=O)[O-])c1 [Example No. 8]

Response:
1: 0.11; 2: 1.4; 3: 0.44

IC50 for CSc1cccc(-n2c(=O)c(CCCc3ccncc3)cc3cccnc32)c1 [Example No. 10] is 1.5

* * *

Measured Metric: melting point

Solved entries (count: 2):
# Compound String, Assay Result
data = [
    ("O=c1c(CCCCCc2ccncc2)cc2cccnc2n1-c1cccc([N+](=O)[O-])c1", "188.8 to 189.6 °C"),
    ("O=c1c(CCCc2ccoc2)cc2cccnc2n1-c1cccc([N+](=O)[O-])c1", "185 to 186 °C"),
]

Hi, could you look up melting point for each item in my list?
1. O=c1c(Cc2ccccn2)cc2cccnc2n1-c1cccc([N+](=O)[O-])c1
2. O=c1c(CCCCc2nc3ccccc3s2)cc2cccnc2n1-c1cccc([N+](=O)[O-])c1
3. CS(=O)(=O)c1cccc(-n2c(=O)c(CCCc3ccncc3)cc3cccnc32)c1

Response:
229 to 231 °C
167.5 to 169.5 °C
127 to 131 °C

* * *

IC50, PDE V (Sus scrofa, UniProt A0A287B475): measured values
One number for each entry, in µM.

# Compound String, IC50 (µM)
measured = [
    ("O=c1c(CCCCc2ccccn2)cc2cccnc2n1-c1cccc([N+](=O)[O-])c1", 13),
    ("O=c1c(CCCCCc2cccnc2)cc2cccnc2n1-c1cccc([N+](=O)[O-])c1", 7.4),
]

Parameters: items (list). Returns: IC50 for each item.
1. O=c1c(CCc2ccncc2)cc2cccnc2n1-c1cccc([N+](=O)[O-])c1
2. O=c1c(CCc2cccnc2)cc2cccnc2n1-c1cccc([N+](=O)[O-])c1

Response:
1. 15
2. 13

* * *

So I've got a bunch of compounds here, and I need their melting point values.

In the examples that follow, each entry is paired with its recorded melting point.
# Compound String, melting point
rows = [
    ("O=c1c(CCc2cccs2)cc2cccnc2n1-c1cccc([N+](=O)[O-])c1", "175 to 176 °C"),
    ("O=c1c(Cc2ccncc2)cc2cccnc2n1-c1cccc([N+](=O)[O-])c1", "230 °C"),
    ("O=c1c(CCCCCCCc2ccncc2)cc2cccnc2n1-c1cccc([N+](=O)[O-])c1", "189 to 192 °C"),
]

// next item, melting point requested
Documented melting point of O=c1c(CCCc2nccs2)cc2cccnc2n1-c1cccc([N+](=O)[O-])c1 : 198 to 199 °C

* * *

test system: PDE IV; construct: other: PDE IV from porcine hearts, cAMP 1 μM; test: PDE inhibition, type IV PDE (cAMP substrate); format: biochemical; details: PDE IV from porcine hearts, cAMP 1 μM; read-out: Inhibition of PDE Isoenzymes (IC50) IV
Measured Metric: IC50 (nM)
Answers are plain numbers, in nM.

For every listed record, write down its IC50.
1. N#Cc1cccc(-n2c(=O)c(Cc3ccncc3)cc3cccnc32)c1
2. O=c1c(CCc2ccncc2)cc2cccnc2n1-c1cccc([N+](=O)[O-])c1
3. O=c1c(CCCc2ccncc2)cc2cccnc2n1-c1cccnc1
4. O=c1c(CCCCCc2ccncc2)cc2cccnc2n1-c1cccc([N+](=O)[O-])c1

Response:
1200
160
1200
2200

* * *

Please go through the items and note down their melting point.

Example compounds with recorded melting point:
# Compound, melting point
records = [
    ("Cc1ccc2cc(CCCc3ccncc3)c(=O)n(-c3cccc([N+](=O)[O-])c3)c2n1 [Example 11]", "165 to 166 °C"),
    ("O=c1c(CCCCc2ccccn2)cc2cccnc2n1-c1cccc([N+](=O)[O-])c1 [Example No. 13]", "163 to 165 °C"),
]

Count: 6. Required value per item: melting point.
1. O=c1c(CCCc2ccncc2)cc2cccnc2n1-c1cccc(Cl)c1 [Example 9]
2. O=c1c(CCCc2ccccn2)cc2cccnc2n1-c1cccc([N+](=O)[O-])c1 [Example 28]
3. N#Cc1cccc(-n2c(=O)c(CCCc3ccncc3)cc3cccnc32)c1 [Example 25]
4. N#Cc1cccc(-n2c(=O)c(Cc3ccncc3)cc3cccnc32)c1 [Example No. 3]
5. O=c1c(CCCc2nc3ccccc3s2)cc2cccnc2n1-c1cccc([N+](=O)[O-])c1 [Example 30]
6. CSc1cccc(-n2c(=O)c(CCCc3ccncc3)cc3ccc(C)nc32)c1 [Example 12]

Response:
["148 to 149 °C", "201 to 202 °C", "202 to 203.5 °C", "229 to 230 °C", "185 to 186 °C", "158 to 159 °C"]

* * *

Measured Metric: melting point

Use the examples below as a reference point.
# Compound, melting point
rows = [
    ("O=c1c(CCc2nc3ccccc3s2)cc2cccnc2n1-c1cccc([N+](=O)[O-])c1 [Example 29]", "178 to 179 °C"),
    ("O=c1c(CCCc2ccco2)cc2cccnc2n1-c1cccc([N+](=O)[O-])c1 [Example 20]", "166 to 167 °C"),
]

Below: the item to evaluate.
For record O=c1c(CCCCc2ccncc2)cc2cccnc2n1-c1cccc([N+](=O)[O-])c1 [Example No. 15] the listed melting point is 168.8 to 169.6 °C
